Catalogue of AUC(0-inf) readings, one per entry.
Experiment: AUC (0 to infinity) in mouse at 1 mg/kg, iv
Format: ADME, organism-based
Set-up: time infinity, route intravenous, dose 1 mg/kg
Conditions: in vivo
A number alone suffices; assume µM·h.

In [3]: df
Out[3]:
                                        smi  measurement
0  CNc1cc(C)nc(Nc2ccc(OC)c(C3=CCN(C)CCC3)c2)n1          1.2
1  CNc1cc(C)nc(Nc2ccc(OC)c(C3=CCNCCC3)c2)n1         0.79

Bench note: what AUC(0-inf) did CNc1cc(C)nc(Nc2ccc(OC)c(OCCCN3CCCC3)c2)n1 show?
1.71

---

Catalogue of half-life readings, one per entry.
Test: Half-life in mouse at 1 mg/kg, iv
Type: ADME, organism-based
Conditions: in vivo
A number alone suffices; assume h.

Past entries and their recorded results:
In [3]: df
Out[3]:
                                        smi  measurement
0  CNc1cc(C)nc(Nc2ccc(OC)c(OCCCN3CCCC3)c2)n1            4
1  CNc1cc(C)nc(Nc2ccc(OC)c(C3=CCNCCC3)c2)n1            7

For the next question, use this molecule.
Bench note: what half-life did CNc1cc(C)nc(Nc2ccc(OC)c(C3=CCN(C)CCC3)c2)n1 show?
5.6

---

Catalogue of solubility readings, one per entry.
Assay: Aqueous solubility of the compound in pH 6.8 JP2 fluid
Type: physicochemical
A number alone suffices; assume µg/mL.

Past entries and their recorded results:
>>> print(df.to_string())
                                        smi  measurement
0  CNc1cc(C)nc(Nc2ccc(OC)c(C3=CCN(C)CCC3)c2)n1          360
1  CNc1cc(C)nc(Nc2ccc(OC)c(C3=CCNCCC3)c2)n1          640

For the next question, use this compound.
Bench note: what solubility did CNc1cc(C)nc(Nc2ccc(OC)c(OCCCN3CCCC3)c2)n1 show?
590

---

Assay: Metabolic stability in monkey liver microsomes assessed as compound remaining at 0.5 mg/mL incubated for 0.5 hrs
Type: ADME, Macaca mulatta, Microsome
Conditions: rhesus monkey, read-out: Stabilty
property label: remaining at 0.5 h

Past entries and their recorded results:
>>> df
                                        smi  measurement
0  CNc1cc(C)nc(Nc2ccc(OC)c(OCCCN3CCCC3)c2)n1           8%
1  CNc1cc(C)nc(Nc2ccc(OC)c(C3=CCN(C)CCC3)c2)n1           2%

Bench note: what remaining at 0.5 h did CNc1cc(C)nc(Nc2ccc(OC)c(C3=CCNCCC3)c2)n1 show?
24%

---

Target: hERG (KCNH2) (Homo sapiens, UniProt Q12809)
Sequence (Q12809 whole entry): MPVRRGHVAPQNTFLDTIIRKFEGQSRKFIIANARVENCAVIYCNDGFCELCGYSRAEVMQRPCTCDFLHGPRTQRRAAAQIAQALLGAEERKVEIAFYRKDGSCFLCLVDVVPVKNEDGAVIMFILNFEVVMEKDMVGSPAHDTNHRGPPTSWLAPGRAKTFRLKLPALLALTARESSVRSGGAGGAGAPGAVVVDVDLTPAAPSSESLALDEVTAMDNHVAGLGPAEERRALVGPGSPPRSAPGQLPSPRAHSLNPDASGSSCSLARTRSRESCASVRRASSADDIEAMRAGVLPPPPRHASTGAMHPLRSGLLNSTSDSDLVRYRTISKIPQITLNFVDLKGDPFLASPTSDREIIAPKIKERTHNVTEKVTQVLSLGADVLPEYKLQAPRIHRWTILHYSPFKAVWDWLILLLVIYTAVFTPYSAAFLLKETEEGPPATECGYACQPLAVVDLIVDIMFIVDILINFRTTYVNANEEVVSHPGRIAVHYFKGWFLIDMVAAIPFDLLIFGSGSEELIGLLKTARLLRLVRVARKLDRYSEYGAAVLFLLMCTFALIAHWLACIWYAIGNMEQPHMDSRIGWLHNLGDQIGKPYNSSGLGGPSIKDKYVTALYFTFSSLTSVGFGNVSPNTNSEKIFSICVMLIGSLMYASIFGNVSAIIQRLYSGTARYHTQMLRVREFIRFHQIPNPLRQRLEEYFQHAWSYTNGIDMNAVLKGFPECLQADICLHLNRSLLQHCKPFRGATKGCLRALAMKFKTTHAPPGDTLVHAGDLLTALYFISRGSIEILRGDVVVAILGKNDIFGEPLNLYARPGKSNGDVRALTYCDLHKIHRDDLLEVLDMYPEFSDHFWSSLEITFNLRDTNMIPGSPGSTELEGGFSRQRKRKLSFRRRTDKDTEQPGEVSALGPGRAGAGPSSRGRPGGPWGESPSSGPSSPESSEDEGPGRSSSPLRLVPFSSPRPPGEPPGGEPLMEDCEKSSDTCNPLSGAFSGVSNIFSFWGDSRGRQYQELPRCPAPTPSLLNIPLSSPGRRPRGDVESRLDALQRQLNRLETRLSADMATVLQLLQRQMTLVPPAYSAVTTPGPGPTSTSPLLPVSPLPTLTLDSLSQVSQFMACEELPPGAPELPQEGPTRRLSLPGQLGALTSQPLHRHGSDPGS
Experiment: Inhibition of human ERG at 10 uM relative to control
Catalogue of inhibition at 10 µM readings, one per entry.
A number alone suffices; assume %.

Past entries and their recorded results:
In [3]: df
Out[3]:
                                        smi       property_label  measurement
0  CNc1cc(C)nc(Nc2ccc(OC)c(C3=CCNCCC3)c2)n1  inhibition at 10 µM            1
1  CNc1cc(C)nc(Nc2ccc(OC)c(C3=CCN(C)CCC3)c2)n1  inhibition at 10 µM           17

For the next question, use this compound.
Form: Entry = CNc1cc(C)nc(Nc2ccc(OC)c(OCCCN3CCCC3)c2)n1 | System = hERG (KCNH2) (Homo sapiens, UniProt Q12809) | inhibition at 10 µM = ____
42
